System: F380Y
Test Name: modulators of BK channel variants, profiling panel, selectivity assay, cell-based, U2OS BacMam, thallium flux, beta subunits (AID 1259406);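 further: initial slope of Thallos dye fluorescence rise after thallium is added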
Run Parameters: at 30 µM
Class condition met: log fold change Tl+ flux at least 0.02. Class condition not met: log fold change Tl+ flux below 0.02.

Req: Threshold query (log fold change Tl+ flux >= 0.02) on CC(=O)Nc1nnc(S(N)(=O)=O)s1
Resp: condition met

Req: Threshold query (log fold change Tl+ flux >= 0.02) on N[C@@H](C(=O)N[C@@H]1C(=O)N2C(C(=O)O)=C(Cl)CS[C@H]12)c1ccccc1
Resp: condition not met

Req: Threshold query (log fold change Tl+ flux >= 0.02) on OCCN1CCN(CCCN2c3ccccc3Sc3ccc(C(F)(F)F)cc32)CC1
Resp: condition met

Req: Threshold query (log fold change Tl+ flux >= 0.02) on OC(CCN1CCCC1)(c1ccccc1)C1CCCCC1 (stereo not drawn)
Resp: condition met

Req: Threshold query (log fold change Tl+ flux >= 0.02) on CC(C)NCC(O)c1cc(O)cc(O)c1 (stereo not drawn)
Resp: condition not met

Req: Threshold query (log fold change Tl+ flux >= 0.02) on Cc1cccc(Nc2ccccc2C(=O)O)c1C
Resp: condition met

Req: Threshold query (log fold change Tl+ flux >= 0.02) on C[C@]12C=CC(=O)C=C1CC[C@@H]1[C@@H]2C(=O)C[C@@]2(C)[C@H]1CC[C@]2(O)C(=O)CO
Resp: condition not met

Req: Threshold query (log fold change Tl+ flux >= 0.02) on CCN(CC)CCNC(=O)c1ccc(N)cc1
Resp: condition not met

Req: Threshold query (log fold change Tl+ flux >= 0.02) on CC1=C(CC(=O)O)c2cc(F)ccc2/C1=C\c1ccc(S(C)=O)cc1 (stereo not drawn)
Resp: condition met

Req: Threshold query (log fold change Tl+ flux >= 0.02) on CC1Cc2ccccc2N1NC(=O)c1ccc(Cl)c(S(N)(=O)=O)c1 (stereo not drawn)
Resp: condition not met

Req: Threshold query (log fold change Tl+ flux >= 0.02) on O=C(CCCN1CC=C(n2c(=O)[nH]c3ccccc32)CC1)c1ccc(F)cc1
Resp: condition met

Req: Threshold query (log fold change Tl+ flux >= 0.02) on COc1ccccc1OCCNCC(O)COc1cccc2[nH]c3ccccc3c12 (stereo not drawn)
Resp: condition not met
